- TARGET SYSTEM: UniProt:P17706
- Sequence (P17706 whole entry): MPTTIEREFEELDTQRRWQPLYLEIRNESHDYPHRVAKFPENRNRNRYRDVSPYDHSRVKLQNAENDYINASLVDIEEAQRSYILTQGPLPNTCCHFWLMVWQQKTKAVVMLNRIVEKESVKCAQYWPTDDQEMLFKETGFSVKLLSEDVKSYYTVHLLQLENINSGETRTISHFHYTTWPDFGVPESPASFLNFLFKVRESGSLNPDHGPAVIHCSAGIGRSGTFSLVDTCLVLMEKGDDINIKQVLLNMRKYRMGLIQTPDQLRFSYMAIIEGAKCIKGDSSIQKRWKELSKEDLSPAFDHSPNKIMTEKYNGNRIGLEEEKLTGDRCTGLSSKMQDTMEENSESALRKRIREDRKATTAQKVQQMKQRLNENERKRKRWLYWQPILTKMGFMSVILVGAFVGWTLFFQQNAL
- MEASUREMENT NOTES: Inhibition of human recombinant TCPTP after 30 mins by spectrophotometry
VALUE KIND: IC50 (nM)

>>> numeric_value("O=C(O)c1cccc2c1oc1ccc(-c3csc(-c4cc(Br)c(C(=O)[C@H](Cc5ccccc5)C(=O)O)c(Br)c4)n3)cc12")
3140
>>> numeric_value("O=C(O)/C=C/c1cccc(-c2nc(-c3ccc4oc5c(C(=O)O)cccc5c4c3)cs2)c1")
794
>>> numeric_value("CC1CN(c2ccc(-c3nc(-c4ccc5oc6c(C(=O)O)cccc6c5c4)cs3)cc2)CC(C)O1 (centres undefined)")
1430
>>> numeric_value("CN(C)c1ccc(-c2nc(-c3ccc4oc5c(C(=O)O)cccc5c4c3)cs2)cc1")
961
>>> numeric_value("O=C(O)c1cccc2c1oc1ccc(-c3csc(-c4ccc(N5CCCCC5)cc4)n3)cc12")
2070
>>> numeric_value("O=C(O)c1cccc2c1oc1ccc(-c3csc(-c4ccc([N+](=O)[O-])cc4)n3)cc12")
348
>>> numeric_value("O=C(O)c1ccc(-c2nc(-c3ccc4oc5c(C(=O)O)cccc5c4c3)cs2)cc1")
2100
>>> numeric_value("O=C(O)c1cccc2c1oc1ccc(-c3csc(-c4ccc(I)cc4)n3)cc12")
1870
>>> numeric_value("O=C(O)c1cccc2c1oc1ccc(-c3csc(-c4ccc(N5CCCC5)cc4)n3)cc12")
1660
